These data points were gathered from the array DNA melting data of Ke et al. (doi:10.1101/2024.01.08.574731).

test: folding enthalpy; higher = less favourable; fluorescence melt of hairpins on a sequencing array, two-state fit; conditions: sodium 0.088 M
Please use 1 whenever folding enthalpy is not below -20 kcal/mol, and 0 whenever it is.

ORDERED_RESIDUES: GACACCGGAAACGACGTC (((..((....))..)))
CLASSIFICATION: 0
//
ORDERED_RESIDUES: GTTCGCCCGAAAGGGAAC (((..(((....))))))
CLASSIFICATION: 1
//
ORDERED_RESIDUES: GGCGTGGGAAACCGCGTC (.((.((....)).)).)
CLASSIFICATION: 0
//
ORDERED_RESIDUES: GATCTGACTGCAGATC ((((((....))))))
CLASSIFICATION: 0
//
ORDERED_RESIDUES: GTGGAGACGAAAGTCCAC (((..(((....))))))
CLASSIFICATION: 0

# input for lookup
# bool: folding enthalpy of GCAGATGGAAACATTTGC (((.(((....))).))) >= -20 kcal/mol
0
